# Tested on: PC-3 prostate
# assay_overview: NCI tumour cell line growth inhibition, 48 h; in the data active = GI50 below about 0.43 µM; inactive = the rest
Outcomes: active, inactive

molecule	class_assignment
COc1cc(/C=C2\CC3C4CC=C5C[C@@H](O)CC[C@]5(C)C4CC[C@]3(C)C2=O)ccc1OCCCn1ccnc1 (stereo not given in full)	inactive
CSc1nsc(S/C=C\C(=O)c2ccc(C)cc2)n1	inactive
COC(=O)c1ccc2c(c1)C(=O)c1c-2n(CCCN)c(=O)c2cc(OC)c(OC)cc12	inactive
CCC[CH2][Sn]1([CH2]CCC)[O]C(=O)c2ccc(N)cc2[O]1	inactive
C/C(=N\NC(=S)N1CCN(c2ccccn2)CC1)c1nccs1	inactive
CCN(CC)CCOc1c(OC)c(Br)cc2c(C)c(C(=O)OC)oc12	active
COc1cc2c3c(ncc2c(OC)c1OC)-c1cc2c(cc1C3)OCO2	inactive
Oc1c(CN2CCCC2)cc(CSCc2ccccc2)c2cccnc12	inactive
CC(C)(C)n1cc(-c2ccnc(NCCCNS(=O)(=O)c3ccc(Br)cc3)c2)c(-c2cccc(O)c2)n1	inactive
Clc1ccc2c(c1)C(N1CCNCC1)=Nc1ccccc1O2	inactive
